Values were extracted from patent US8895561B2.

System: human transformed liver HepG2 cells
Assay: Cytotoxicity, MTS viability assay
Assay type: cell-based
Protocol: Candida IC50s were determined by OD600 and fluorescence from vegetative cells and by MTS viability assay in the hyphal state. MICs were determined using a broth microdilution assay under standard CLSI conditions Bacteria strains: E. coli 25922 (EC), S. aureus 27660 (SA), E. faecalis 29212 (EF), P. aeruginosa 10145 (PA), and K. pneumoniae 13883 (KP). […] Candida IC50s (CA) were determined by OD600 and fluorescence from vegetative cells. […]
measurement.name: pEC50
Numbers only, as −log10 of the molar value.

Provide pEC50 value for the following molecule: NCCCn1c2cc(-c3ccc(CCN)c(CCN)c3)ccc2c2ccc(-c3ccc(CCN)c(CCN)c3)cc21 [Compound 159] 4.19

###

Test system: C. glabrata (ATCC 90030)
Assay: Yeast MIC
Assay type: cell-based
Details: Nakaseomyces glabratus, ATCC90030; Table 5; read-out: MIC C. glabrata
measurement.name: MIC (µg/mL)
Give bare numbers, in µg/mL.

compound	measurement.name	readout.number
NCCSc1cc(SCCN)c(C(F)(F)F)cc1NC(=O)c1cc(C(=O)Nc2cc(C(F)(F)F)c(SCCN)cc2SCCN)ncn1 [Compound 100]	MIC	16

Batch request: MIC per item, same order as input.
1. N=C(N)NCCc1cccc(-c2ccc(-c3cccc(CCNC(=N)N)c3)cc2)c1 [Compound 186]
2. N=C(N)NCCc1cccc(-c2ccc(-c3cccc(CCNC(=N)N)c3)s2)c1 [Compound 185]
3. NCCCOc1cc(-c2cn(-c3cc(OCCCN)cc(OCCCN)c3)nn2)cc(-c2cn(-c3cc(OCCCN)cc(OCCCN)c3)nn2)c1 [Compound 137]

2
2
8

###

Tested on: human transformed liver HepG2 cells
Test: Cytotoxicity, MTS viability assay
Assay type: cell-based
Conditions: Homo sapiens, HepG2; cytotoxicity
measurement.name: IC50 (µM)
Give bare numbers, in µM.

Batch request: IC50 per item, same order as input.
1. NCCCOc1cc(-c2cn(-c3cc(OCCCN)cc(OCCCN)c3)nn2)cc(-c2cn(-c3cc(OCCCN)cc(OCCCN)c3)nn2)c1
2. N=C(N)N1CCN(c2ccc(-c3cc(-c4ccc(N5CCN(C(=N)N)CC5)cc4)ncn3)cc2)CC1
3. NCCCOc1cccc(-n2cc(-c3ccc4ccc(-c5cn(-c6cccc(OCCCN)c6)nn5)cc4c3)nn2)c1

[182, 453, 502]

###

For each record, write down the corresponding MIC.
Test system: E. faecalis 29212

Batch request: MIC per item, same order as input.
1. N=C(N)NCCCn1c2cc(-c3ccc(CCNC(=N)N)c(CCNC(=N)N)c3)ccc2c2ccc(-c3ccc(CCNC(=N)N)c(CCNC(=N)N)c3)cc21
2. NCCCn1c2cc(-c3cccc(OCCN)c3)ccc2c2ccc(-c3cccc(OCCN)c3)cc21
3. NCCN(CCN)c1cccc(-c2ccc3[nH]c4ccc(-c5cccc(N(CCN)CCN)c5)cc4c3c2)c1
4. NCCCOc1ccc(-c2ccc3c4ccc(-c5ccc(OCCCN)cc5)cc4n(CCCN)c3c2)cc1
5. CCn1c2ccc(-c3cccc(N(CCN)CCN)c3)cc2c2cc(-c3cccc(N(CCN)CCN)c3)ccc21

3.13 µg/mL
6.25 µg/mL
> 50 µg/mL
1.56 µg/mL
> 50 µg/mL

###

Test system: P. aeruginosa 10145
Experiment: Bacterial MIC, broth microdilution, CLSI
Assay type: cell-based
Details: Pseudomonas aeruginosa; P. aeruginosa 10145
For each record, write down the corresponding EC50.

Reference set, count: 2
molecule	measurement.name	result
NCCCOc1cccc(-n2cc(-c3ccc4ccc(-c5cn(-c6cccc(OCCCN)c6)nn5)cc4c3)nn2)c1	EC50	> 50 µg/mL
NCCCOc1cc(-c2cn(-c3cc(OCCCN)cc(OCCCN)c3)nn2)cc(-c2cn(-c3cc(OCCCN)cc(OCCCN)c3)nn2)c1	EC50	50 µg/mL

Provide EC50 value for the following compound: "NCCCOc1cc(OCCCN)cc(-c2ccc3c(c2)c2cc(-c4cc(OCCCN)cc(OCCCN)c4)ccc2n3CCCN)c1" > 50 µg/mL

###

Observed MIC, system E. coli 25922.
Answers are plain numbers, in µg/mL.

Reference set, count: 5
molecule	measurement.name	readout.number
NCCN(CCN)c1cccc(-c2ccc3[nH]c4ccc(-c5cccc(N(CCN)CCN)c5)cc4c3c2)c1	MIC	1.56
N=C(N)NCCCn1c2cc(-c3cc(CCNC(=N)N)cc(CCNC(=N)N)c3)ccc2c2ccc(-c3cc(CCNC(=N)N)cc(CCNC(=N)N)c3)cc21	MIC	1.56
NCCN(CCN)Cc1cccc(-c2ccc3[nH]c4ccc(-c5cccc(CN(CCN)CCN)c5)cc4c3c2)c1	MIC	1.56
NCCCn1c2cc(-c3cccc(N)c3)ccc2c2ccc(-c3cccc(N)c3)cc21	MIC	12.5
N=C(N)NCCCn1c2cc(-c3ccc(CCNC(=N)N)c(CCNC(=N)N)c3)ccc2c2ccc(-c3ccc(CCNC(=N)N)c(CCNC(=N)N)c3)cc21	MIC	1.56

Batch request: MIC per item, same order as input.
1. NCCCn1c2cc(-c3cccc(CCN)c3)ccc2c2ccc(-c3cccc(CCN)c3)cc21
2. NCCCOc1cc(OCCCN)cc(-c2ccc3c4ccc(Br)cc4n(CCCN)c3c2)c1

1. 3.13
2. 50

###

Experiment: Cytotoxicity, MTS viability assay
Type: cell-based, mouse
Details: mouse, 3T3 fibroblasts; read-out: 3T3 (cytotoxicity EC50)
measurement.name: pEC50
Give bare numbers, as −log10 of the molar value.

Reference set, count: 4
molecule	pEC50
NCCN(CCN)c1cccc(-c2ccc3[nH]c4ccc(-c5cccc(N(CCN)CCN)c5)cc4c3c2)c1	3.31
CCn1c2ccc(-c3cc(C(=O)NCCN)cc(C(=O)NCCN)c3)cc2c2cc(-c3cc(C(=O)NCCN)cc(C(=O)NCCN)c3)ccc21	3.35
NCCCOc1cc(OCCCN)cc(-c2ccc3c4ccc(-c5cc(OCCCN)cc(OCCCN)c5)cc4n(CCCN)c3c2)c1	3.65
NCCN(CCN)Cc1cccc(-c2ccc3[nH]c4ccc(-c5cccc(CN(CCN)CCN)c5)cc4c3c2)c1	3.75

Here is another compound to look at.
Provide pEC50 value for the following compound: "NCCCn1c2cc(-c3cc(CCN)cc(CCN)c3)ccc2c2ccc(-c3cc(CCN)cc(CCN)c3)cc21" 3.45

###

Observed MIC, system S. salivarius.

Batch request: MIC per item, same order as input.
1. NCCSc1cc(SCCN)c(C(F)(F)F)cc1NC(=O)c1cc(C(=O)Nc2cc(C(F)(F)F)c(SCCN)cc2SCCN)ncn1 [Compound 100]
2. NCCCOc1cc(-c2cn(-c3cc(OCCCN)cc(OCCCN)c3)nn2)cc(-c2cn(-c3cc(OCCCN)cc(OCCCN)c3)nn2)c1 [Compound 137]
3. NCCCOc1cc(OCCCN)cc(-c2ccc3c(c2)c2cc(-c4cc(OCCCN)cc(OCCCN)c4)ccc2n3CCCN)c1 [Compound 135]

1. > 64 µg/mL
2. > 64 µg/mL
3. > 64 µg/mL

###

Experiment: Cytotoxicity, MTS viability assay
Type: cell-based, human
Conditions: human, HepG2 cells (transformed liver); read-out: HepG2 (cytotoxicity EC50)
For each record, write down the corresponding pEC50.
Numbers only, as −log10 of the molar value.

compound	pEC50
CCn1c2ccc(-c3cc(C(=O)NCCN)cc(C(=O)NCCN)c3)cc2c2cc(-c3cc(C(=O)NCCN)cc(C(=O)NCCN)c3)ccc21 [Compound 148]	3.51

Batch request: pEC50 per item, same order as input.
1. N=C(N)NCCCn1c2cc(-c3cc(CCNC(=N)N)cc(CCNC(=N)N)c3)ccc2c2ccc(-c3cc(CCNC(=N)N)cc(CCNC(=N)N)c3)cc21 [Compound 162]
2. NCCCc1cccc(-c2ccc3c4ccc(-c5cccc(CCCN)c5)cc4n(CCN)c3c2)c1 [Compound 140]
3. NCCCOc1cc(OCCCN)cc(-c2ccc3c4ccc(Br)cc4n(CCCN)c3c2)c1 [Compound 146]
4. NCCCn1c2cc(-c3cccc(N)c3)ccc2c2ccc(-c3cccc(N)c3)cc21 [Compound 153]

[3.56, 4.00, 3.47, 4.19]

Batch request: pEC50 per item, same order as input.
1. NCCN(CCN)Cc1cccc(-c2ccc3[nH]c4ccc(-c5cccc(CN(CCN)CCN)c5)cc4c3c2)c1 [Compound 158]
2. N=C(N)NCCCCCc1cccc(-c2ccc3c4ccc(-c5cccc(CCCNC(=N)N)c5)cc4n(CCCNC(=N)N)c3c2)c1 [Compound 142]
3. NCCCn1c2cc(-c3cccc(CCN)c3)ccc2c2ccc(-c3cccc(CCN)c3)cc21 [Compound 144]

1. 3.21
2. 4.00
3. 3.73

Batch request: pEC50 per item, same order as input.
1. NCCCn1c2cc(-c3cccc(OCCN)c3)ccc2c2ccc(-c3cccc(OCCN)c3)cc21 [Compound 151]
2. NCCCOc1cccc(-c2ccc3c4ccc(-c5cccc(OCCCN)c5)cc4n(CCCN)c3c2)c1 [Compound 150]
3. NCCCOc1ccc(-c2ccc3c4ccc(-c5ccc(OCCCN)cc5)cc4n(CCCN)c3c2)cc1 [Compound 152]

4.11
4.24
4.92

Provide pEC50 value for the following compound: N=C(N)NCCCOc1cc(OCCCNC(=N)N)cc(-c2ccc3c(c2)c2cc(-c4cc(OCCCNC(=N)N)cc(OCCCNC(=N)N)c4)ccc2n3CCCNC(=N)N)c1 [Compound 163] 3.95
